Taken from paper PMC3728351.

# protocol_notes: in vitro
# Type: cell-based
# study_conditions: human; Huh 5-2 cells, 3 days proliferation; relative error 15%
# Procedure: Serial dilutions of the test compounds in complete DMEM (without G418) were added 24 hours after seeding. Cells were allowed to proliferate for 3 days at 37°C, after which the cell number was determined by CellTiter 96 AQueous One Solution Cell Proliferation Assay (Promega Corporation).
Please respond with reported CC50 for every item in the list.

Enquiry: Look up CC50: CC(=O)C1CCC2C3C=CC4=CC(=O)CCC4(C)C3CCC12C (stereo not shown)
Return: > 120 µM

Enquiry: Can you look up the measured CC50 of CCOc1ccc(Cc2nccc3cc(OCC)c(OCC)cc23)cc1OCC for me?
Return: 60 µM

Enquiry: Find the recorded CC50 belonging to COC(=O)Nc1nc2ccc(C(=O)c3cccs3)cc2[nH]1 and report it.
Return: > 120 µM

Enquiry: Need CC50 of COC(=O)[C@H]1[C@H]2C[C@@H]3c4[nH]c5cc(OC)ccc5c4CCN3C[C@H]2C[C@@H](OC(=O)/C=C/c2cc(OC)c(OC)c(OC)c2)[C@@H]1OC , thanks.
Return: > 120 µM

----------
For each record, write down the corresponding Kd.
# target_of_assay: NS3 protease S139A/D168A (Hepatitis C virus genotype 1b, UniProt P26663, D1194A/S1165A)
# Construct: The N-terminal domain from full-length NS3 protein corresponding to NS3 protease was expressed and purified
# Sequence (P26663 1027-1208 S1165A/D1194A): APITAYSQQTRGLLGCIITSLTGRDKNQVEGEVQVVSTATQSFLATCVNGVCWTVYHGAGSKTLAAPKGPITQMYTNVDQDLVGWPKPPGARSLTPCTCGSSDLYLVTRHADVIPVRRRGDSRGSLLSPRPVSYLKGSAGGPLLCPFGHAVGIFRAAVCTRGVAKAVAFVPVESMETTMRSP
# protocol_notes: ITC binding to Zn^+2-free NS3 protease, S139A/D168A
# study_conditions: 25°C, 100 mM sodium acetate, 2 mM EDTA, pH 5; relative error 15%
Your answer is read as µM, so omit the unit and give the number.

Enquiry: Please look up its Kd: COC(=O)[C@H]1[C@H]2C[C@@H]3c4[nH]c5cc(OC)ccc5c4CCN3C[C@H]2C[C@@H](OC(=O)/C=C/c2cc(OC)c(OC)c(OC)c2)[C@@H]1OC
Return: 36

Enquiry: Which Kd reading was recorded for the molecule CCOc1ccc(Cc2nccc3cc(OCC)c(OCC)cc23)cc1OCC ?
Return: 16

Enquiry: Sample CC(=O)C1CCC2C3C=CC4=CC(=O)CCC4(C)C3CCC12C (centres unmarked) — what was its Kd?
Return: 6.5

Enquiry: # get_value(readout='Kd', item= COC(=O)Nc1nc2ccc(C(=O)c3cccs3)cc2[nH]1 )
Return: 2.6

Enquiry: I am curious: what Kd value has been reported for Nc1c2c(nc3ccccc13)CCCC2 ?
Return: 8.5

----------
# target_of_assay: NS3 protease S139A/A156T (Hepatitis C virus genotype 1b, UniProt P26663, A1182T/S1165A)
# Construct: The N-terminal domain from full-length NS3 protein corresponding to NS3 protease was expressed and purified
# Sequence (P26663 1027-1208 S1165A/A1182T): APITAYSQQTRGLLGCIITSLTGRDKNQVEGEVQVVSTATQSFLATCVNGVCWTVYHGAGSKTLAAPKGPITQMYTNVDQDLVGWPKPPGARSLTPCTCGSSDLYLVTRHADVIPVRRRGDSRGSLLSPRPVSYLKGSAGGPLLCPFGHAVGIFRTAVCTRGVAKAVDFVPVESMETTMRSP
# protocol_notes: ITC binding to Zn^+2-free NS3 protease, S139A/A156T
# study_conditions: 25°C, 100 mM sodium acetate, 2 mM EDTA, pH 5; relative error 15%
# Experimental: The N-terminal domain from full-length NS3 protein corresponding to NS3 protease was expressed and purified as described elsewhere, [18]. Ligand binding to NS3 protease was determined with a high-sensitivity isothermal titration VP-ITC microcalorimeter (MicroCal, USA). […] Data were analyzed using software developed in our laboratory implemented in Origin 7 (OriginLab, USA). […]
Would you mind telling me the reported Kd of each entry?
Unit µM implied. Number only.

Enquiry: Sample CCOc1ccc(Cc2nccc3cc(OCC)c(OCC)cc23)cc1OCC — what was its Kd?
Return: 22

Enquiry: Tell me the measured Kd of CC(=O)C1CCC2C3C=CC4=CC(=O)CCC4(C)C3CCC12C (stereo not shown) , please.
Return: 5.8

Enquiry: # input compound: Nc1c2c(nc3ccccc13)CCCC2 ; wanted: its Kd
Return: 27

Enquiry: Item COC(=O)[C@H]1[C@H]2C[C@@H]3c4[nH]c5cc(OC)ccc5c4CCN3C[C@H]2C[C@@H](OC(=O)/C=C/c2cc(OC)c(OC)c(OC)c2)[C@@H]1OC has what recorded Kd?
Return: 45
